Assign viability, T/C to each entry below.
Test system: 188146-221-R-J1-PDC complex spheroid viability;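 also: spheroids exposed to compounds for seven days; 100% = DMSO vehicle control viability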
Test: Anticancer human tumor 188146-221-R-J1-PDC patient-derived colon adenocarcinoma cell line growth inhibition [POLQ]
Details: second compound 0.1 µM; first compound 0.0316 µM; stronger effect = lower value
State the answer as a number, implicitly in %.

query: Could you share which viability, T/C value was measured for O=C(c1cc(Cc2n[nH]c(=O)c3ccccc23)ccc1F)N1CCN(C(=O)C2CC2)CC1 + COC1C(OC(N)=O)C(O)C(Oc2ccc3c(O)c(NC(=O)c4ccc(O)c(CC=C(C)C)c4)c(=O)oc3c2C)OC1(C)C ?
result: 107

query: Param item: CNCc1ccc(-c2[nH]c3cc(F)cc4c3c2CCNC4=O)cc1 + Cc1cccc(N(C)C(=O)C2C(O)CCN2c2nc(C)cc(C(F)(F)F)c2C#N)c1
result: 108

query: Repeat with CCCS(=O)(=O)Nc1ccc(F)c(C(=O)c2c[nH]c3ncc(-c4ccc(Cl)cc4)cc23)c1F + Cc1cccc(N(C)C(=O)C2C(O)CCN2c2nc(C)cc(C(F)(F)F)c2C#N)c1
result: 113

query: CCc1cc2c(N3CCc4c(cc(Cn5ccnc5)cc4-c4cn(C)nc4C(F)(F)F)C3=O)cc(C)nc2c(OC)n1 + Cc1cccc(N(C)C(=O)C2C(O)CCN2c2nc(C)cc(C(F)(F)F)c2C#N)c1 ?
result: 95.9

query: Next: CCc1cc2c(N3CCc4c(cc(Cn5ccnc5)cc4-c4cn(C)nc4C(F)(F)F)C3=O)ccnc2c(OC)n1 + COC1C(OC(N)=O)C(O)C(Oc2ccc3c(O)c(NC(=O)c4ccc(O)c(CC=C(C)C)c4)c(=O)oc3c2C)OC1(C)C
result: 117

query: Further, for COc1cccc2c1C(=O)c1c(O)c3c(c(O)c1C2=O)CC(O)(C(=O)CO)CC3OC1CC(N)C(O)C(C)O1 (configuration not stated) + COC1C(OC(N)=O)C(O)C(Oc2ccc3c(O)c(NC(=O)c4ccc(O)c(CC=C(C)C)c4)c(=O)oc3c2C)OC1(C)C ?
result: 91.8

query: Also CCc1c2c(nc3ccc(O)cc13)-c1cc3c(c(=O)n1C2)COC(=O)[C@]3(O)CC + Nc1ccc(C#CCN(C(=O)Cc2ncc(C(F)(F)F)cc2C(F)(F)F)c2ccc(F)cc2)nn1 ?
result: 42.1

query: Another compound to check: C=CCn1c(=O)c2cnc(Nc3ccc(N4CCN(C)CC4)cc3)nc2n1-c1cccc(C(C)(C)O)n1 + Cc1cccc(N(C)C(=O)C2C(O)CCN2c2nc(C)cc(C(F)(F)F)c2C#N)c1
result: 119

query: Next compound up: O=c1[nH]cc(F)c(=O)[nH]1 + COC1C(OC(N)=O)C(O)C(Oc2ccc3c(O)c(NC(=O)c4ccc(O)c(CC=C(C)C)c4)c(=O)oc3c2C)OC1(C)C
result: 95.2

query: Follow-up item: C=CCn1c(=O)c2cnc(Nc3ccc(N4CCN(C)CC4)cc3)nc2n1-c1cccc(C(C)(C)O)n1 + COC1C(OC(N)=O)C(O)C(Oc2ccc3c(O)c(NC(=O)c4ccc(O)c(CC=C(C)C)c4)c(=O)oc3c2C)OC1(C)C
result: 101

query: Next up: CC1COCCN1c1cc(C2(O)CC3CCC(C2)O3)c2cnn(-c3ccn[nH]3)c2n1 (configuration not stated) + COC1C(OC(N)=O)C(O)C(Oc2ccc3c(O)c(NC(=O)c4ccc(O)c(CC=C(C)C)c4)c(=O)oc3c2C)OC1(C)C
result: 94.5

query: Again, but for Cn1ncnc1[C@H]1c2n[nH]c(=O)c3cc(F)cc(c23)N[C@@H]1c1ccc(F)cc1 + COC1C(OC(N)=O)C(O)C(Oc2ccc3c(O)c(NC(=O)c4ccc(O)c(CC=C(C)C)c4)c(=O)oc3c2C)OC1(C)C
result: 99.5
